Data provenance: patent US20230151110A1

# EXPERIMENTAL_SYSTEM: T1, CD47 on the surface of cynomolgus monkey B cells (cynomolgus monkey, UniProt A0A5F8AK49 19-323 (rhesus entry))
# T1 construct: whole, on cells; also called cynomolgus monkey CD47
# PROTOCOL_SUMMARY: FACS on cynomolgus monkey B cells, antibody 66.7 nM
ENDPOINT_LABEL: Max MFI compared with Ch-125G4m-m35 value, % (%)
Write the number in % without appending the unit.

These recorded examples may help you get a feel for the data.
BINDER | ASSAY_RESULT
Hu-125G4A4m-44 (antibody, V domains shown, Humanized antibody, IgG4 S228P (IgG4P) subtype) VH: QVQLVQSGAEVKKPGSSVKVSCKASGYTFTSYYMHWVRQAPGQGLEWMGYIDPANDYSDYNQNFKDRVTITADKSTRTTYMELTSLRSEDTAVYYCARLGYGQSSPFDYWGQGTTVTVSS VL: DIKMTQSPSSLSASVGDRVTITCKASQDIHNYLSWFQQKPGKAPKTLIYRAKRLVEGVPLRFSGSGSGQDYTLTISSLQPEDFATYFCLQYDELYTFGQGTRLEIK | 99
Hu-125G4A4m-47 (antibody, V domains shown, Humanized antibody, IgG4 S228P (IgG4P) subtype) VH: QVQLVQSGAEVKKPGSSVKVSCKASGYTFTSYYMHWVRQAPGQGLEWMGYIDPANDYSDYNQNFKDRVTITADKSTRTAYMELTSLRSEDTAVYYCARLGYGQSSPFDYWGQGTTVTVSS VL: DIKMTQSPSSLSASVGDRVTITCKASQDIHNYLSWFQQKPGKAPKTLIYRAKRLVEGVPLRFSGSGSGQDYTLTISSLQPEDFATYFCLQYDELYTFGQGTRLEIK | 90
Hu-125G4A4m-45 (antibody, V domains shown, Humanized antibody, IgG4 S228P (IgG4P) subtype) VH: QVQLVQSGAEVKKPGSSVKVSCKASGYTFTSYYMHWVRQAPGQGLEWMGYIDPANDYSDYNQNFKDRVTITADKSTRTAYMELTSLRSEDTAVYYCARLGYGQSSPFDYWGQGTTVTVSS VL: DIQMTQSPSSLSASVGDRVTITCKASQDIHNYLSWFQQKPGKAPKSLIYRAKRLVEGVPSRFSGSGSGTDYTLTISSLQPEDFATYYCLQYDELYTFGQGTRLEIK | 58
chimeric antibody Ch-125G4-m35 (antibody, V domains shown, Chimeric antibody with human IgG4 (S228P) heavy chain constant region and human kappa light chain constant region; PTM sites mutated (NSS to QSS in the heavy chain, DG to EG in the light chain); also called Ch-125G4m-m35; 125G4A4m) VH: QVQLQQSGTELAKPGASVKMSCKASGYTFTSYYMHWVKQRPGQILEWIGYIDPANDYSDYNQNFKDKATLTADKSSRTTYMQLTSLTSEDSAVYYCARLGYGQSSPFDYWGQGTTLIVSS VL: DIKMTQSPSSMYASVGERVTITCKASQDIHNYLSWFQQKPGKSPKTLIYRAKRLVEGVPLRFSGSGSGQDYSLTISSLEYEDMGIYFCLQYDELYTFGGGTRLEIK | 100

For this binder ( Hu-125G4A4m-46 (antibody, V domains shown, Humanized antibody, IgG4 S228P (IgG4P) subtype) VH: QVQLVQSGAEVKKPGSSVKVSCKASGYTFTSYYMHWVRQAPGQGLEWMGYIDPANDYSDYNQNFKDRVTITADKSTRTAYMELTSLRSEDTAVYYCARLGYGQSSPFDYWGQGTTVTVSS VL: DIQMTQSPSSLSASVGDRVTITCKASQDIHNYLSWFQQKPGKAPKSLIYRAKRLVEGVPSRFSGSGSGQDYTLTISSLQPEDFATYYCLQYDELYTFGQGTRLEIK ), measured Max MFI compared with Ch-125G4m-m35 value, % is 55
